Organism: Homo sapiens
Assay protocol: Compound was tested for the psychotropic effect in human (activity is expressed in mescaline unit)
Type: functional
Give Human potency for every item shown.

COc1ccc(CCN)c(OC)c1SC: <2 MU

Hi there! I need Human potency for each item below, if you can.
1. COc1ccc(CCN)c(OC)c1OC
2. COc1ccc(CCN)cc1OC
3. COc1c(CCN)ccc(SC)c1OC
4. COc1cc(CCN)cc(OC)c1SC
5. COc1ccc(CCN)c(SC)c1OC

Result:
1: <1 MU; 2: <1 MU; 3: <2 MU; 4: 12 MU; 5: <2 MU

Hi there! I need Human potency for each item below, if you can.
1. COc1cc(CCN)cc(OC)c1OC
2. COc1cc(CCN)cc(SC)c1OC

Result:
["1 MU", "6 MU"]
